Every entry's value here was drawn from patent US20230078764A1.

So I've got a bunch of compounds here, and I need their IC50 values.
target or system: human SCD5 (Homo sapiens)
Construct: expressed in transfected cells; host or cells: yeast strain with OLE1 deleted, plasmid-borne human SCD5 (selected in SD-Ura)
Sequence (Q86SK9 1-330): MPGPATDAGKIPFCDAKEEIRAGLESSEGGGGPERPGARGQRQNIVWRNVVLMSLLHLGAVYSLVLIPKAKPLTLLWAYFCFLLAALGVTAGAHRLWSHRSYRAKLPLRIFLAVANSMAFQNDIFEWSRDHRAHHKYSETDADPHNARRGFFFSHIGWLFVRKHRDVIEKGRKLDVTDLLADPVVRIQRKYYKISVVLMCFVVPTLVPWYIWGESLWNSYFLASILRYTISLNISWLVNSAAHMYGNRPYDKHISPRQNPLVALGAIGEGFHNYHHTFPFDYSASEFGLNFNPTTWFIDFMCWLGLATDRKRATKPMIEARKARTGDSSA
assay protocol: Growth inhibition of yeast strain expressing human SCD5 as sole desaturase (OLE1 deleted), OD600 readout
Assay type: cell-based
setup conditions: yeast strain expressing human SCD5 as sole desaturase; growth (OD600) after 40 h at 30° C.; read-out: SCD5 IC50
Answer in nM, number only, no unit symbol.

Measured IC50 (human SCD5 (Homo sapiens)), entry Cn1cc(C(=O)Nc2ccc(Cc3cccc(C(F)F)c3)cn2)ccc1=O [Compound 545] : 100

Measured IC50 (human SCD5 (Homo sapiens)), entry Cn1cc(C(=O)Nc2ccc(Cc3ccc(Cl)c(C#N)c3)cn2)ccc1=O [Compound 617] : 39

Measured IC50 (human SCD5 (Homo sapiens)), entry Cn1nc(C(=O)Nc2ccc(Cc3cccc(F)c3)nn2)ccc1=O [Compound 195] : 2310

Measured IC50 (human SCD5 (Homo sapiens)), entry N#Cc1ccc(C(=O)Nc2ccc(Cc3ccc(F)c(Cl)c3)cn2)nc1 [Compound 130] : 40

Measured IC50 (human SCD5 (Homo sapiens)), entry Cn1ccc(C(=O)Nc2ccc(Cc3cc(F)cc(C#N)c3)cn2)n1 [Compound 96] : 130

Measured IC50 (human SCD5 (Homo sapiens)), entry CN1N=C(C(=O)Nc2ccc(Cc3cncc(C(F)(F)F)c3)cn2)CCC1=O [Compound 277] : 13400

Measured IC50 (human SCD5 (Homo sapiens)), entry O=C(Nc1ccc(Cc2cccc(F)c2)cn1)c1ccc(=O)n(C2COC2)c1 [Compound 272] : 13000

Measured IC50 (human SCD5 (Homo sapiens)), entry CN1N=C(C(=O)Nc2ccc(COc3ccc(F)cc3F)cn2)CCC1=O [Compound 607] : 580

Measured IC50 (human SCD5 (Homo sapiens)), entry CN1N=C(C(=O)Nc2ccc(Cc3ccccc3)nn2)CCC1=O [Compound 253] : 4750

Measured IC50 (human SCD5 (Homo sapiens)), entry Cn1cc(C(=O)Nc2ccc(C3CC3c3ccccc3)cn2)ccc1=O (stereo not drawn) [Compound 298] : 340

Measured IC50 (human SCD5 (Homo sapiens)), entry Cn1cc(C(=O)Nc2ccc(Cc3cc(F)c(F)c(Cl)c3)cn2)ccc1=O [Compound 543] : 10
